Sequence of the target: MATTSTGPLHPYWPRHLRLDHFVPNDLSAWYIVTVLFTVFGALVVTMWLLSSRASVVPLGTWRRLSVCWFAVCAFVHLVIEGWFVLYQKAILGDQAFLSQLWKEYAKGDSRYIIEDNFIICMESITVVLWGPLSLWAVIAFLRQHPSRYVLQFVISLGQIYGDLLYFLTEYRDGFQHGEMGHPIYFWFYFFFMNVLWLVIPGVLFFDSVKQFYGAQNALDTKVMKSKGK
measurement-name: pIC50
Numbers only, as −log10 of the molar value.

In: Please indicate pIC50 recorded for CC/C(=C(/c1ccc(OCCN(C)C)cc1)c1ccc(OC(=O)C(C)(C)C)cc1)c1ccccc1 [Example 11]
Out: 7.12
